Where do the numbers come from? From patent US6444688B1.

A collection of compounds and their measured Uterine Weight (% inc. OVX)
- System: ovariectomized (OVX) rats
- Protocol notes: Four day dosing regimen, post-menopausal rat model: wet uterine weight
- Assay type: in vivo, Sprague Dawley rats
- Condition info: OVX rats, oral, daily for 4 days, dose 10 mg/kg
Marks after values point to notes of the source that are not given here.

Study these solved cases before continuing.
INSERT INTO assay_data (compound, result) VALUES
  ('O=C(c1ccc(OCCNC(=O)C2CCCCC2)cc1)c1c(-c2ccc(O)cc2)sc2cc(O)ccc12 [Compound 21]', '8.6 % inc. OVX'),
  ('O=C(c1ccc(OCCN2CCCCC2=O)cc1)c1c(-c2ccc(O)cc2)sc2cc(O)ccc12 [Compound 3]', '57.6* % inc. OVX'),
  ('CC(=O)N(CCOc1ccc(C(=O)c2c(-c3ccc(O)cc3)sc3cc(O)ccc23)cc1)C1CCCCC1 [Compound 19]', '47.0* % inc. OVX');

Fill blank: measured Uterine Weight (% inc. OVX) of the compound CC(C)(C)C(=O)N1CCC(Oc2ccc(C(=O)c3c(-c4ccc(O)cc4)sc4cc(O)ccc34)cc2)CC1 [Compound 23] is ____. 22.3 % inc. OVX
